measured.quantity: melting point

Please review the entries below; each comes with its answer.
CO/N=C/c1cc(C(Oc2ccc3ncsc3c2C)c2nnco2)ncc1F (centres unmarked); 108 to 110 °C
CCc1cc(OC(c2cc(/C=N/OC)c(Br)cn2)c2nnco2)cc2sc(C)nc12 (centres unmarked); 160 to 161 °C
CNc1nc2ccc(OC(c3cc(/C=N/OC)c(F)cn3)c3nnco3)cc2s1 (centres unmarked); 181 to 182 °C
Fc1ccc(C(Oc2ccc3nnsc3c2)c2nnco2)nc1 (centres unmarked); 141 to 142 °C

Each molecule below has a reported value. Please supply its melting point.
1. CCO/N=C/c1ccnc(C(Oc2ccc3ncsc3c2)c2nnco2)c1 (centres unmarked)
2. CO/N=C/c1cc(C(Oc2ccc3ncsc3c2)c2nnco2)ncc1C#N (centres unmarked)
3. Cn1cnc2ccc(OC(c3ccccc3)c3nnco3)cc21 (centres unmarked)
4. CCCc1cc(OC(c2cc(/C=N/OC)ccn2)c2nnco2)cc2scnc12 (centres unmarked)

output:
["113 to 114 °C", "129 to 131 °C", "114 to 116 °C", "80 to 82 °C"]

Each molecule below has a reported value. Please supply its melting point.
1. Clc1ccc(C(Oc2ccc3nnsc3c2)c2nnco2)nc1 (centres unmarked)
2. CO/N=C/c1cc(C(Oc2ccc3nc(C)sc3c2)c2nnco2)ncc1F (centres unmarked) [b-27]
3. CO/N=C/c1cc(C(Oc2ccc3nnsc3c2)c2nnco2)ncc1F (centres unmarked)
4. CO/N=C/c1cc(C(Oc2cc(C)c3nc(C)sc3c2)c2nnco2)ncc1F (centres unmarked)
5. CO/N=C/c1cc(C(Oc2ccc3nc(C4CC4)sc3c2)c2nnco2)ncc1F (centres unmarked)
6. C=Cc1nc2ccc(OC(c3cc(/C=N/OC)c(F)cn3)c3nnco3)cc2s1 (centres unmarked)
7. CO/N=C/c1cc(C(Oc2ccc3nc(C)sc3c2)c2nnco2)ncc1F (centres unmarked) [b-71]

output:
["133 to 134 °C", "129 to 131 °C", "134 to 135 °C", "151 to 154 °C", "103 to 104 °C", "88 to 89 °C", "167 to 168 °C"]

Each molecule below has a reported value. Please supply its melting point.
1. Fc1cnc(C(Oc2ccc3ncsc3c2)c2nnco2)cc1/C=N/OCC1CC1 (centres unmarked)
2. CO/N=C/c1cc(C(Oc2ccc3nc(CF)sc3c2)c2nnco2)ncc1F (centres unmarked)

output:
1: 129 to 131 °C; 2: 133 to 134 °C

Each molecule below has a reported value. Please supply its melting point.
1. CO/N=C/c1cc(C(Oc2cc(F)c3ncsc3c2)c2nnco2)ncc1F (centres unmarked)
2. C#CCO/N=C/c1ccnc(C(Oc2ccc3nc(C)sc3c2)c2nnco2)c1 (centres unmarked)
3. CO/N=C/c1cc(C(Oc2ccc3nc(I)sc3c2)c2nnco2)ncc1F (centres unmarked)

output:
1. 137 to 139 °C
2. 118 to 121 °C
3. 166 to 168 °C
